Data provenance is the RNAGym collection of RNA variant scans (doi:10.7554/elife.90254).

B1: LINE1-full (parent)
chain: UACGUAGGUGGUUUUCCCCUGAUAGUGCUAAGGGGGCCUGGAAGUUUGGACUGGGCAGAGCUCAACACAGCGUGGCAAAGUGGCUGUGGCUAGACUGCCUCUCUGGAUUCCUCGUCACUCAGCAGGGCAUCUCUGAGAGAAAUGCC

- Variants of: B1
- Assay protocol: self-cleavage, relative activity (ratio to wild type); higher = more cleavage; in vitro, sequencing; the parent is a self-cleaving ribozyme
Measured self-cleavage, listed per entry for reference.
Property: self-cleavage

INSERT INTO measurements (mutant_id, property, result_value) VALUES
  ('U47G A57G', 'self-cleavage', 0.62),
  ('A124C A140G', 'self-cleavage', 1.88),
  ('A22U G25A', 'self-cleavage', 0.7),
  ('C123U G135C', 'self-cleavage', 1.97),
  ('U62C G89A', 'self-cleavage', 0.01),
  ('A30U C113U', 'self-cleavage', 0.88),
  ('U73C A79U', 'self-cleavage', 1.65),
  ('A117G U119G', 'self-cleavage', 1.87),
  ('A22U G106U', 'self-cleavage', 1.72),
  ('U73A U134G', 'self-cleavage', 0.45),
  ('U23A U29C', 'self-cleavage', 1.02),
  ('C61U A140G', 'self-cleavage', 0.03),
  ('U39A A57U', 'self-cleavage', 0.12),
  ('G11U A42G', 'self-cleavage', 1.58),
  ('A57G A121U', 'self-cleavage', 1),
  ('A64G A107G', 'self-cleavage', 0.33),
  ('U14C U26G', 'self-cleavage', 1.61),
  ('A22G U119G', 'self-cleavage', 1.51),
  ('A31U U134A', 'self-cleavage', 0.9),
  ('A2U U100A', 'self-cleavage', 0.66),
  ('G4U U109C', 'self-cleavage', 1.07),
  ('C113U U132C', 'self-cleavage', 0.89),
  ('U45A G137U', 'self-cleavage', 1.77),
  ('U9A A50G', 'self-cleavage', 1.03),
  ('A59U U132C', 'self-cleavage', 0.71),
  ('U112A A124U', 'self-cleavage', 1.61),
  ('A31U A117U', 'self-cleavage', 0.95),
  ('A65G C123U', 'self-cleavage', 0.04),
  ('A57G A64U', 'self-cleavage', 0.3),
  ('G11A', 'self-cleavage', 1.31),
  ('A136G U143C', 'self-cleavage', 1.47),
  ('G33C C128U', 'self-cleavage', 0.92),
  ('U46A C146A', 'self-cleavage', 1.53),
  ('G25A A42G', 'self-cleavage', 1.38),
  ('C18U A64U', 'self-cleavage', 0.19),
  ('G55A A65G', 'self-cleavage', 0.03),
  ('U26A U91A', 'self-cleavage', 0.44),
  ('G33U A64G', 'self-cleavage', 0.21),
  ('G80A C128U', 'self-cleavage', 1.9),
  ('U100A U132A', 'self-cleavage', 0.31),
  ('A6U A129U', 'self-cleavage', 1.52),
  ('G105U A124U', 'self-cleavage', 0.22),
  ('C71A C128U', 'self-cleavage', 0.18),
  ('G93A U108C', 'self-cleavage', 0.03),
  ('C19G', 'self-cleavage', 0.35),
  ('U5C U81A', 'self-cleavage', 1.56),
  ('A59G A124U', 'self-cleavage', 0.14),
  ('A6G U134G', 'self-cleavage', 0.8),
  ('G86A U87C', 'self-cleavage', 0.04),
  ('U47C C95A', 'self-cleavage', 0.09),
  ('U100C C113U', 'self-cleavage', 1.7),
  ('U62A U85A', 'self-cleavage', 0.02),
  ('U9A U130C', 'self-cleavage', 1.07),
  ('U9A U87A', 'self-cleavage', 0.15),
  ('U39G G135A', 'self-cleavage', 1.86),
  ('U134A A141U', 'self-cleavage', 1.12),
  ('A64G U119A', 'self-cleavage', 0.32),
  ('U5A U104C', 'self-cleavage', 1.1),
  ('G80A G89A', 'self-cleavage', 0.07),
  ('A69C A141G', 'self-cleavage', 0.07),
  ('G41A A59G', 'self-cleavage', 0.07),
  ('G75A G86C', 'self-cleavage', 0.07),
  ('U73A A78U', 'self-cleavage', 1.94),
  ('U62C A129U', 'self-cleavage', 0.01),
  ('U23C G122A', 'self-cleavage', 1.61),
  ('U5G U13C', 'self-cleavage', 0.83),
  ('A57G U73C', 'self-cleavage', 1.17),
  ('G72U U81C', 'self-cleavage', 1.28),
  ('U9C A22G', 'self-cleavage', 1.03),
  ('A67U A129G', 'self-cleavage', 0.08),
  ('C110A A121U', 'self-cleavage', 1.32),
  ('C61U A79G', 'self-cleavage', 0.01),
  ('G86A U119A', 'self-cleavage', 0.16),
  ('G97A U115C', 'self-cleavage', 0.3),
  ('A92G U104A', 'self-cleavage', 0.06),
  ('U9C U73A', 'self-cleavage', 1.58),
  ('U15A U85G', 'self-cleavage', 0.28),
  ('C3U U115C', 'self-cleavage', 1.03),
  ('U14C A138C', 'self-cleavage', 1.56),
  ('C51A A57G', 'self-cleavage', 0.48),
  ('C76A U87G', 'self-cleavage', 0.11),
  ('A30C A50G', 'self-cleavage', 1.21),
  ('C68U A69G', 'self-cleavage', 0.11),
  ('A64G C116A', 'self-cleavage', 0.1),
  ('A50G A79U', 'self-cleavage', 1.09);
